assay: Log P by HPLC on reversed phase columns, method [a] (EEC directive 79/831 Annex V.A8); format: physicochemical; details: reversed phase HPLC column; method [a], HPLC on reversed phase columns; read-out: logP
Labelling field: enter 1 (yes) if recorded chromatographic logP is less than 3. Enter 0 (no) if it equals or exceeds that cut-off.

Hello, I'm reviewing records and need to know if chromatographic logP of CC(C)(Nc1ncc(-c2nnc(C(F)F)o2)cn1)c1cccc(C(F)(F)F)c1 [I.256] is below 3. Could you check?
0 (no)

Same again, this time with Cc1ccc(C(C)(CO)Nc2ncc(-c3nnc(C(F)F)o3)cn2)cc1C (racemic) [I.235]
1 (yes)

# repeat for FC(F)c1nnc(-c2cnc(NC3(c4cccnc4)CCCC3)nc2)o1 [I.218]
1 (yes)

FC(F)c1nnc(-c2cnc(NC3(c4cccc(Cl)c4)CCC3)nc2)o1 [I.175] , same question.
0 (no)

Ok, now FC(F)c1nnc(-c2cnc(NC3(c4cccc(OC(F)(F)F)c4)CC3)nc2)o1 [I.262]
0 (no)

FC(F)c1nnc(-c2cnc(NC3(c4ccc(Cl)cc4)CCC3)nc2)o1 [I.237] , same question.
0 (no)

Thanks! And CC(Nc1ncc(-c2nnc(C(F)F)o2)cn1)c1cccc(OC(F)(F)F)c1 (racemic) [I.257] ?
0 (no)

Same question, FC(F)c1nnc(-c2cnc(NC3(c4ccc(Cl)cc4)CC3)nc2)o1 [I.226] this time
0 (no)

Follow-up entry: CC(C)(Nc1ncc(-c2nnc(C(F)F)o2)cn1)c1ccccc1F [I.212]
0 (no)

How about FC(F)c1nnc(-c2cnc(NC3(c4cccs4)CCCC3)nc2)o1 [I.225] ?
0 (no)

Entry to check: CC(Nc1ncc(-c2nnc(C(F)F)o2)cn1)c1ccccc1C(F)(F)F (racemic) [I.240]
0 (no)

Same thing, different molecule: FC(F)c1nnc(-c2cnc(NC3(c4cccc(C(F)(F)F)c4)CC3)nc2)o1 [I.249]
0 (no)

Same for Fc1ccc(C2(Nc3ncc(-c4nnc(C(F)F)o4)cn3)CC2)cc1F [I.229]
1 (yes)

And COC(=O)C(Nc1ncc(-c2nnc(C(F)F)o2)cn1)c1ccccn1 (stereo not shown) [I.222] ?
1 (yes)

FC(F)c1nnc(-c2cnc(NC(c3ccccc3)c3ccccc3)nc2)o1 [I.238] , same question.
0 (no)

Now consider Fc1cc(C(F)(F)F)ccc1C1(Nc2ncc(-c3nnc(C(F)F)o3)cn2)CC1 [I.263] and answer again.
0 (no)

Now the molecule CC(C)C1(Nc2ncc(-c3nnc(C(F)F)o3)cn2)CC1 [I.187]
1 (yes)

Now the molecule FC(F)c1nnc(-c2cnc(NC3(c4cccc(Cl)c4)CCCCC3)nc2)o1 [I.258]
0 (no)

Repeat for the following molecule: Fc1cccc(F)c1C1(Nc2ncc(-c3nnc(C(F)F)o3)cn2)CCC1 [I.177]
0 (no)

Field entry: FC(F)c1nnc(-c2cnc(NC3(c4ccc(C(F)(F)F)cc4)CC3)nc2)o1 [I.250]
0 (no)

And for FC(F)c1nnc(-c2cnc(NC3(c4ccccc4)CC3)nc2)o1 [I.195] ?
1 (yes)

Same thing, different molecule: FC(F)(Cl)c1nnc(-c2cnc(NC3(c4ccccc4)CCC3)nc2)o1 [I.176]
0 (no)

Same thing, different molecule: CC(Nc1ncc(-c2nnc(C(F)F)o2)cn1)c1ccncc1 (racemic) [I.190]
1 (yes)

How about FC(F)c1nnc(-c2cnc(NC3(c4ccc(C(F)(F)F)cc4)CCCC3)nc2)o1 [I.266] ?
0 (no)

Please give the result for O=C(N(c1ncc(-c2nnc(C(F)F)o2)cn1)C1(c2ccccc2F)CC1)C(F)(F)F [I.267] too.
0 (no)

Please answer likewise for CC(Nc1ncc(-c2nnc(C(F)F)o2)cn1)c1cccnc1 (racemic) [I.188]
1 (yes)

Another: CC(C)(Cc1ccc(F)cc1)Nc1ncc(-c2nnc(C(F)F)o2)cn1 [I.223]
0 (no)

Same read-out for Fc1ccccc1C1(Nc2ncc(-c3nnc(C(F)(F)Cl)o3)cn2)CC1 [I.179] ?
0 (no)

Also Fc1ccc(CCNc2ncc(-c3nnc(C(F)F)o3)cn2)cc1 [I.200] , if possible.
1 (yes)

What about CC(C)(CNc1ncc(-c2nnc(C(F)F)o2)cn1)c1ccc(F)cc1 [I.224] ?
0 (no)

Try this molecule next: FC(F)c1nnc(-c2cnc(NC3(c4cccc(Oc5ccccc5)c4)CC3)nc2)o1 [I.265]
0 (no)
